- Study system: TNIK (Homo sapiens, UniProt Q9UKE5)
- Construct: purchased Promega V4158
- Sequence (Q9UKE5 1-367 limits assumed): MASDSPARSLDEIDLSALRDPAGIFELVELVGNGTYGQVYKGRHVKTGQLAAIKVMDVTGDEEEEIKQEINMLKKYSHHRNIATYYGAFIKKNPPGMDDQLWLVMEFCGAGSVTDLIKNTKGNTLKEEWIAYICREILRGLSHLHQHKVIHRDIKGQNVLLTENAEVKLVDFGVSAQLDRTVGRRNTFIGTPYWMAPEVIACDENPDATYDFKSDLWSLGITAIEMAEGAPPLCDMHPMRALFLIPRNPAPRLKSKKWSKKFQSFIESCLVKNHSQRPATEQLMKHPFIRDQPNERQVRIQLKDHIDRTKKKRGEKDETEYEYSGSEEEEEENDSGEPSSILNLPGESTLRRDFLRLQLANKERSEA
- Procedure details: ADP-Glo Kinase Assay, inhibition activity on TNIK
- Assay type: biochemical
- Experimental setup: read-out: TNIK
Structures can show the parent of a compound that is named as a salt.
Assay endpoint: IC50 (µM)

Field: example entries. Status: answers known.
COc1ccccc1-c1ccc(NC(=O)c2ccc(NCCCO)cc2)c2c1CNC2=O [Example 354] | 0.22
CC(C)(O)c1ccc(NC(=O)c2ccc(F)cc2)c2c1CNC2=O [Example 393] | 2.57
COc1cccc(Nc2ccc(NC(=O)c3ccc(F)cc3)c3c2CNC3=O)c1OC [Example 422] | 1.18
Nc1ccc(-c2ccco2)c2c1C(=O)NC2=O [Example 274] | 3.6
CN1CCN(CCNc2ccc(C(=O)Nc3ccc(-c4ccccc4)c4c3C(=O)NC4)cc2)CC1 [Example 379] | 0.35

A: COc1cccc(-c2ccc(NC(=O)c3ccc(NCCCN(C)C)cc3)c3c2CNC3=O)c1OC [Example 306]
B: COc1ccccc1-c1ccc(NC(=O)c2ccc(NCCN3CCCC3)cc2)c2c1CNC2=O [Example 303, hydrochloride]
Lab note: check whether A or B has the lower measured IC50. To answer, give the label that identifies your chosen option.
A
(A: 0.074 µM, B: 0.3 µM)

====

- Study system: TNIK (Homo sapiens, UniProt Q9UKE5)
- Construct: purchased Promega V4158
- Procedure details: ADP-Glo Kinase Assay, inhibition activity on TNIK
- Assay type: biochemical
- Experimental setup: read-out: TNIK
Assay endpoint: IC50 (nM)

Field: example entries. Status: answers known.
COc1cccc(-c2ccc(NC(=O)c3ccc(NCCN4CCCCC4)cc3)c3c2CNC3=O)c1OC [Example 298] | 78
Cc1cccc(C)c1-c1ccc(NC(=O)c2ccccc2)c2c1CNC2=O [Example 28] | 1700
O=C(Nc1ccc(Nc2cc(C(F)(F)F)cc(C(F)(F)F)c2)c2c1C(=O)NC2)c1ccc(NCCCN2CCCCC2)cc1 [Example 468] | 17100

A: COc1ccc(NC(=O)Nc2ccc(-c3ccccc3)c3c2C(=O)NC3)cc1 [Example 230]
B: COc1cccc(-c2ccc(NC(=O)c3ccc(NCCO)cc3)c3c2CNC3=O)c1OC [Example 311]
Pick one: A or B . Which has the bigger IC50 number? To answer, give the label that identifies your chosen option.
A

A: COc1cccc(Nc2ccc(NC(=O)c3ccc(NCCN4CCCCC4)cc3)c3c2CNC3=O)c1 [Example 446]
B: O=C(Nc1ccc(-c2ccccc2OC(F)(F)F)c2c1C(=O)NC2)c1ccccc1 [Example 4]
Pick one: A or B . Which has the bigger IC50 number? To answer, give the label that identifies your chosen option.
B

====

- Study system: TNIK (Homo sapiens, UniProt Q9UKE5)
- Construct: purchased Promega V4158
- Procedure details: ADP-Glo Kinase Assay, inhibition activity on TNIK
- Type: biochemical
- Experimental setup: read-out: TNIK
pIC50: −log10 of the molar value.
Assay endpoint: pIC50

Field: example entries. Status: answers known.
CCc1ccc(-c2ccc(NC(=O)c3ccccc3)c3c2CNC3=O)cc1 | 5.21
COc1ccccc1-c1ccc(NC(=O)c2ccc(NCCN3CCCCC3)cc2)c2c1CNC2=O | 6.77
O=C(Nc1ccc(-c2ccccc2)c2c1C(=O)NC2)c1ccc(NCCCO)cc1 | 6.48

A: O=C(Nc1ccc(-c2cccc3[nH]cnc23)c2c1C(=O)NC2)c1ccc(F)cc1
B: COc1cccc(Nc2ccc(NC(=O)c3ccccc3)c3c2CNC3=O)c1
Lab note: check whether A or B has the lower measured pIC50. To answer, give the label that identifies your chosen option.
B

P: CC(C)(O)c1ccc(NC(=O)c2ccc(NCCN3CCCC3)cc2)c2c1CNC2=O
Q: Nc1ccc(-c2cccs2)c2c1C(=O)NC2=O
Pick one: P or Q . Which has the bigger pIC50 number? To answer, give the label that identifies your chosen option.
Q
(Q: 5.96, P: 5.26)

P: CC(=O)Nc1ccc(C(=O)Nc2ccc(-c3ccccc3)c3c2C(=O)NC3)cc1
Q: O=C(Nc1ccc(Sc2ccccc2)c2c1C(=O)NC2)c1ccccc1
Pick one: P or Q . Which has the bigger pIC50 number? To answer, give the label that identifies your chosen option.
P

1: O=C(Nc1ccc(Nc2ccccc2)c2c1C(=O)NC2)c1ccc(NCC(O)CN2CCCCC2)cc1 (stereo not drawn)
2: O=C(Nc1ccc(-c2ccccc2)c2c1C(=O)NCC2)c1ccco1
Pick one: 1 or 2 . Which has the bigger pIC50 number? To answer, give the label that identifies your chosen option.
1

====

- Study system: TNIK (Homo sapiens)
- Construct: purchased Promega V4158
- Procedure details: ADP-Glo Kinase Assay, inhibition activity on TNIK
- Format: biochemical
- Experimental setup: read-out: TNIK
Assay endpoint: IC50 (µM)

1: CCCCNC(=O)Nc1ccc(-c2ccccc2)c2c1C(=O)NC2
2: COc1ccccc1-c1ccc(NC(=O)c2ccc(NCCCN3CCN(C)CC3)cc2)c2c1CNC2=O
3: O=C(Nc1ccc(-c2ccccc2)c2c1C(=O)NC2)c1ccc(NCCN2CCCCC2)cc1
4: O=C(Nc1ccc(-c2ccoc2)c2c1C(=O)NC2)c1ccccc1
5: CS(=O)(=O)Nc1ccc(-c2ccccc2)c2c1C(=O)NC2
Rank by IC50 (largest to smallest). Please list the labels in the order you were asked to rank them.
5, 4, 1, 2, 3
(5: 21 µM, 4: 2.7 µM, 1: 1.1 µM, 2: 0.51 µM, 3: 0.32 µM)

====

- Study system: TNIK (Homo sapiens)
- Construct: purchased Promega V4158
- Procedure details: ADP-Glo Kinase Assay, inhibition activity on TNIK
- Type: biochemical
- Experimental setup: read-out: TNIK
- Description: The inhibition activities on TNIK, IKKε and TBK1 were measured by a luminometer, TNIK/IKKε/TBK1 Kinase Enzyme System (Promega, Ca# V4158; Invitrogen, PR8031B, Promega, Ca# V3991) and ADP-Glo Kinase Assay using ADP-Glo™ Kinase Analysis Kit (Promega, Ca# V9101) and a kinase reaction buffer [40 mM Tris(pH 7.5), 20 mM MgCl2, 0.1 mg/mL BSA] in accordance with the manufacturer's protocol.
Assay endpoint: IC50 (µM)

a: O=C(Nc1ccc(-c2ccc(CN3CCCCC3)s2)c2c1C(=O)NC2)c1ccccc1
b: CN(C)CCCNc1ccc(C(=O)Nc2ccc(-c3ccccc3)c3c2C(=O)NC3)cc1
c: COCCCNc1ccc(C(=O)Nc2ccc(-c3ccccc3)c3c2C(=O)NC3)cc1
d: Nc1ccc(-c2ccccc2)c2c1C(=O)NC2=O
e: Cc1ccc(-c2ccc(NC(=O)c3ccccc3)c3c2CNC3=O)cc1C
Rank by IC50 (largest to smallest). Please list the labels in the order you were asked to rank them.
a, e, d, c, b

====

- Study system: TNIK (Homo sapiens)
- Construct: purchased Promega V4158
- Procedure details: ADP-Glo Kinase Assay, inhibition activity on TNIK
- Type: biochemical
- Experimental setup: read-out: TNIK
pIC50: −log10 of the molar value.
Assay endpoint: pIC50

Field: example entries. Status: answers known.
O=C(Nc1ccc(-c2ccccc2)c2c1C(=O)NC2)c1ccco1 | 6.52
Cc1cccc(Nc2ccc(NC(=O)c3ccc(NCCCN4CCCCC4)cc3)c3c2CNC3=O)c1 | 6.36

P: COc1ccccc1-c1ccc(NC(=O)c2ccc(NCc3cccs3)cc2)c2c1CNC2=O
Q: O=C(Nc1ccc(Nc2ccccc2)c2c1C(=O)NC2)c1ccc(NCCCN2CCCC2=O)cc1
R: O=C(Nc1ccc(-c2ccccc2)c2c1C(=O)NC2)c1ccccc1
Your job: order these 3 records by pIC50, ascending. Please list the labels in the order you were asked to rank them.
R, P, Q

====

- Study system: TNIK (Homo sapiens)
- Construct: purchased Promega V4158
- Procedure details: ADP-Glo Kinase Assay, inhibition activity on TNIK
- Assay type: biochemical
- Experimental setup: read-out: TNIK
Assay endpoint: IC50 (nM)

O=C(Nc1ccc(-c2ccccc2)c2c1C(=O)NC2)c1ccccc1F | 950
CN(C)c1ccc(C(=O)Nc2ccc(-c3ccccc3)c3c2C(=O)NC3)cc1 | 1800
Cn1cncc1-c1ccc(NC(=O)c2ccccc2)c2c1CNC2=O | 2210

I: COc1cccc(-c2ccc(NC(=O)c3ccc(NCCCN4CCN(C)CC4)cc3)c3c2CNC3=O)c1OC
II: Cc1ccc(Nc2ccc(NC(=O)c3ccccc3)c3c2CNC3=O)cc1
Pick one: I or II . Which has the bigger IC50 number? To answer, give the label that identifies your chosen option.
II
(II: 4100 nM, I: 57 nM)

====

- Study system: TNIK (Homo sapiens, UniProt Q9UKE5)
- Construct: purchased Promega V4158
- Procedure details: ADP-Glo Kinase Assay, inhibition activity on TNIK
- Assay type: biochemical
- Experimental setup: read-out: TNIK
pIC50: −log10 of the molar value.
Assay endpoint: pIC50

Field: example entries. Status: answers known.
Cc1cccc(Nc2ccc(NC(=O)c3ccccc3)c3c2CNC3=O)c1 | 6.23
COc1cccc(-c2ccc(NC(=O)c3ccc(NCCN)cc3)c3c2CNC3=O)c1OC | 7.43
O=C(Nc1ccc(-c2cccc(Cl)c2Cl)c2c1C(=O)NC2)c1ccccc1 | 6.00

I: CC(=O)Nc1ccc(C(=O)Nc2ccc(-c3ccco3)c3c2C(=O)NC3)cc1
II: COc1cccc(-c2ccc(NC(=O)c3ccc(NCCCN4CCOCC4)cc3)c3c2CNC3=O)c1OC
III: CS(=O)(=O)c1ccc(-c2ccc(NC(=O)c3ccccc3)c3c2CNC3=O)cc1
IV: O=C(Nc1ccc(-c2ccccc2)c2c1C(=O)NC2)c1ccc(NCc2cccs2)cc1
Your job: order these 4 records by pIC50, ascending. Please list the labels in the order you were asked to rank them.
III, IV, I, II
